compounds and their reported log K
assay: Iron chelating activity of the compound assessed as stability constant of Fe3+-compound complex; type: physicochemical
PARAMETER_MEASURED: log K

1) O=C(O)CN(CCN(CC(=O)O)CC(=O)O)CCN(CC(=O)O)CC(=O)O = 28.6
2) O=C(O)CN(CCN(CC(=O)O)Cc1ccccc1O)Cc1ccccc1O = 40
3) CC(=O)N(O)CCCCCNC(=O)CCC(=O)N(O)CCCCCNC(=O)CCC(=O)N(O)CCCCCN = 30.4
4) O=C(O)C(NCCNC(C(=O)O)c1ccccc1O)c1ccccc1O (centres undefined) = 34

----------
compounds and their reported MIC
test system: Bacillus subtilis; assay: Antimicrobial activity against Bacillus subtilis assessed as growth inhibition incubated for 2 hr measured after 24 hr by turbidity based assay; type: functional
PARAMETER_MEASURED: MIC (µg/mL)

1. COCCn1ccc(=O)c(O)c1C(=O)NCCN(CCNC(=O)c1c(O)c(=O)ccn1CCOC)CCNC(=O)c1c(O)c(=O)ccn1CCOC = 40
2. O=C(O)CN(CCN(CC(=O)O)CC(=O)O)CCN(CC(=O)O)CC(=O)O = 80
3. O=C(NCCN(CCNC(=O)c1c(O)c(=O)ccn1CCO)CCNC(=O)c1c(O)c(=O)ccn1CCO)c1c(O)c(=O)ccn1CCO = 40
4. Cn1ccc(=O)c(O)c1C(=O)NCCN(CCNC(=O)c1c(O)c(=O)ccn1C)CCNC(=O)c1c(O)c(=O)ccn1C = 40
5. O=C(NCCN(CCNC(=O)c1[nH]ccc(=O)c1O)CCNC(=O)c1[nH]ccc(=O)c1O)c1[nH]ccc(=O)c1O = 40
6. CCn1ccc(=O)c(O)c1C(=O)NCCN(CCNC(=O)c1c(O)c(=O)ccn1CC)CCNC(=O)c1c(O)c(=O)ccn1CC = 40
7. CCCCn1ccc(=O)c(O)c1C(=O)NCCN(CCNC(=O)c1c(O)c(=O)ccn1CCCC)CCNC(=O)c1c(O)c(=O)ccn1CCCC = 80
8. CCCCCCn1ccc(=O)c(O)c1C(=O)NCCN(CCNC(=O)c1c(O)c(=O)ccn1CCCCCC)CCNC(=O)c1c(O)c(=O)ccn1CCCCCC = 40
9. O=C(NCCN(CCNC(=O)c1c(O)c(=O)ccn1CCOCCO)CCNC(=O)c1c(O)c(=O)ccn1CCOCCO)c1c(O)c(=O)ccn1CCOCCO = 40
